Origin of the recorded values: ChEMBL document CHEMBL1124202

Molecular target: Tyrosine-protein kinase transforming protein Abl (Abelson murine leukemia virus, UniProt P00521)
Sequence (P00521 whole entry): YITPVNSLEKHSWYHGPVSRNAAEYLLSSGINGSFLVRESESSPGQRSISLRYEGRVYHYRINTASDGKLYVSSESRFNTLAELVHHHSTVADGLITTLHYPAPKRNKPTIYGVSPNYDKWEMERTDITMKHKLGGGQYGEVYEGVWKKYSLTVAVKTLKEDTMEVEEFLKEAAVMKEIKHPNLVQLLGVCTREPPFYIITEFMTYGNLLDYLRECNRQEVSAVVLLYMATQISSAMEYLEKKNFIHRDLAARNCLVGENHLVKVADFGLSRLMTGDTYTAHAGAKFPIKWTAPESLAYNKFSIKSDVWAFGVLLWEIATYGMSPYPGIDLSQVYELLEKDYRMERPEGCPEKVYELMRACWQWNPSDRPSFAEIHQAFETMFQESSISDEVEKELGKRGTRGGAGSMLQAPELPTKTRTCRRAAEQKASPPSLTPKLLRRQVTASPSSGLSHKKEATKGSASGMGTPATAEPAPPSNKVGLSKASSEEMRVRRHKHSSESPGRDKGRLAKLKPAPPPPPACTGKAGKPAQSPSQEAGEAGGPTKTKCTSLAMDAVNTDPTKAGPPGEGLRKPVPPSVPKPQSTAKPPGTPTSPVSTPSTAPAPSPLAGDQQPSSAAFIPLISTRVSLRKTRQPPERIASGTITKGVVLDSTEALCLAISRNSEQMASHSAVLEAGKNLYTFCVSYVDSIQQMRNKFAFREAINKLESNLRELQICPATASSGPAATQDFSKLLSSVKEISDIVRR
pIC50: −log10 of the molar value.
quantity_name: pIC50

| compound | recorded_result |
| --- | --- |
| CC(=O)NC(Cc1ccc(NP(=O)(O)OP(=O)(O)OP(=O)(O)OC[C@H]2O[C@@H](n3cnc4c(N)ncnc43)[C@H](O)[C@@H]2O)cc1)C(N)=O (stereo partly drawn) | 4.36 |
| CC(=O)NCCNP(=O)(O)OP(=O)(O)OP(=O)(O)OC[C@H]1O[C@@H](n2cnc3c(N)ncnc32)[C@H](O)[C@@H]1O | 4.60 |
| COc1ccc(CNP(=O)(O)OP(=O)(O)OP(=O)(O)OC[C@H]2OC(n3cnc4c(N)ncnc43)[C@H](O)[C@@H]2O)cc1 (stereo partly drawn) | 4.05 |
| CC(=O)NC(Cc1ccc(NP(=O)(O)OP(=O)(O)OP(=O)(O)OP(=O)(O)OC[C@H]2O[C@@H](n3cnc4c(N)ncnc43)[C@H](O)[C@@H]2O)cc1)C(N)=O (stereo partly drawn) | 3.96 |
| Nc1ncnc2c1ncn2[C@@H]1O[C@H](COP(=O)(O)OP(=O)(O)OP(=O)(O)OP(=O)(O)Oc2ccccc2)[C@@H](O)[C@H]1O | 4.39 |
| Nc1ncnc2c1ncn2[C@@H]1O[C@H](COP(=O)(O)OP(=O)(O)OP(=O)(O)Oc2ccccc2)[C@@H](O)[C@H]1O | 4.89 |
| Cc1ccc(NP(=O)(O)OP(=O)(O)OP(=O)(O)OP(=O)(O)OC[C@H]2O[C@@H](n3cnc4c(N)ncnc43)[C@H](O)[C@@H]2O)cc1 | 4.80 |
| Cc1ccc(NP(=O)(O)OP(=O)(O)OP(=O)(O)OC[C@H]2O[C@@H](n3cnc4c(N)ncnc43)[C@H](O)[C@@H]2O)cc1 | 3.82 |
